Consider the following binders and their measured OD450 readings.
biological target: T1, human MSLN-FL-his protein (human, UniProt Q13421 296-580); assay: ELISA, coated antigen; antibody 0.0001 nM
T1 construct: also called human MSLN full-length protein; hMSLN-FL-his; not shown: His tag
T1 sequence (Q13421 other isoform, or with tags, fused parts or gaps): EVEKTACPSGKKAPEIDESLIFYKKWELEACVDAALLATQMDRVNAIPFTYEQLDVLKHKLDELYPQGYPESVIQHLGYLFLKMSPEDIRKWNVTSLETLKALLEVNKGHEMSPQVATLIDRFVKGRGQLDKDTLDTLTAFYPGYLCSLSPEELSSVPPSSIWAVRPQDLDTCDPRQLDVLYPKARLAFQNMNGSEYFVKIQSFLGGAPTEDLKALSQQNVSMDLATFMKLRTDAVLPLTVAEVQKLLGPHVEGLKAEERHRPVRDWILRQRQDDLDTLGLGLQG
Answer with a number only, understood to be in OD450.

Give the reported OD450 for this binder. S009-F4-127.10 (antibody, human IgG1, kappa, V domains shown, Human-murine chimeric antibody, human IgG1/kappa constant regions) VH: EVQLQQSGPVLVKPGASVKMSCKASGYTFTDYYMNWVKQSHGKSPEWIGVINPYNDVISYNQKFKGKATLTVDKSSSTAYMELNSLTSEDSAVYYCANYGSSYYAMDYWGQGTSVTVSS VL: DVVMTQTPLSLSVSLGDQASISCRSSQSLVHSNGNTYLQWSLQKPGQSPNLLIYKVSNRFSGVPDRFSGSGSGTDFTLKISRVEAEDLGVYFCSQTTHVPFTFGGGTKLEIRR 0.06
